Values from patent US10174013B2

Tested on: MV4-11 cells
Test Protocol: Growth inhibition, MTS assay, MV4-11
Format: cell-based, Human
Condition Label: 72 hours, MTS cell viability; read-out: MV4-11 ED50
Below is a list of entries, each paired with its recorded IC50 value.
// units = µM; emit number, no label

# example entries with known answers
CC(C)n1c(N2CCNC[C@H]2C)nc2c([N+](=O)[O-])c(Br)c(Br)cc21 [Example 1AO] = 0.6
CC(C)n1c(N2CC[C@@H](N)C2)nc2c([N+](=O)[O-])c(Br)c(F)cc21 = 2.1
CCn1c(NCCN)nc2c([N+](=O)[O-])c(Br)c(Br)cc21 = 2.2

Please turn your attention to the following entry.
Ask | Given CC(C)Cn1c(N2CCC[C@@H](N)C2)nc2c([N+](=O)[O-])c(Br)c(Br)cc21.Cl , state its recorded IC50.
Reply | 2.4
